Numbers sourced from PubChem BioAssay (Tox21).

Assay: qHTS assay to identify small molecule antagonists of the estrogen related receptor signaling pathway with the pleiotropic PPARgamma coactivator (PGC) from Tox21 10K library (AID 1224841); also: actives are mostly falling curves and most rising ones were filed inactive; nearly all actives have a fitted effect of over 50% in size
Conditions: PGC/ERR reporter cell line, ONE-Glo luciferase, 18 h; series mostly up to 92.4 µM
Records with an inconclusive call do not appear. The source made the active and inactive calls. No rule for the calls is given here.
Measure: outcome

Example entries and their recorded answers appear below.
[[record]]
compound = "C=CCOC(=O)c1ccc(C(=O)OCC=C)c(C(=O)OCC=C)c1"
measure = "outcome"
recorded_value = "inactive"

[[record]]
compound = "Oc1ccccc1Cc1ccccc1O"
measure = "outcome"
recorded_value = "inactive"

[[record]]
compound = "CC(C)COC(=O)/C=C/c1ccccc1"
measure = "outcome"
recorded_value = "inactive"

[[record]]
compound = "NC(=O)NC(=O)Cc1ccccc1"
measure = "outcome"
recorded_value = "inactive"

[[record]]
compound = "CC(=O)OC[C@H]1O[C@@H](OC(C)=O)[C@H](OC(C)=O)[C@@H]1OC(C)=O"
measure = "outcome"
recorded_value = "inactive"

[[record]]
compound = "OC[C@@H](O)[C@H](O)[C@@H](O)[C@@H](O)CO"
measure = "outcome"
recorded_value = "inactive"


Moving on to another compound below.
Read off the recorded outcome for `O=C(Oc1ccccc1C(=O)O)c1ccccc1O`
inactive

----------
Target: Peroxisome proliferator-activated receptor gamma (Homo sapiens) (UniProt P37231)
Sequence (P37231 whole entry, looked up): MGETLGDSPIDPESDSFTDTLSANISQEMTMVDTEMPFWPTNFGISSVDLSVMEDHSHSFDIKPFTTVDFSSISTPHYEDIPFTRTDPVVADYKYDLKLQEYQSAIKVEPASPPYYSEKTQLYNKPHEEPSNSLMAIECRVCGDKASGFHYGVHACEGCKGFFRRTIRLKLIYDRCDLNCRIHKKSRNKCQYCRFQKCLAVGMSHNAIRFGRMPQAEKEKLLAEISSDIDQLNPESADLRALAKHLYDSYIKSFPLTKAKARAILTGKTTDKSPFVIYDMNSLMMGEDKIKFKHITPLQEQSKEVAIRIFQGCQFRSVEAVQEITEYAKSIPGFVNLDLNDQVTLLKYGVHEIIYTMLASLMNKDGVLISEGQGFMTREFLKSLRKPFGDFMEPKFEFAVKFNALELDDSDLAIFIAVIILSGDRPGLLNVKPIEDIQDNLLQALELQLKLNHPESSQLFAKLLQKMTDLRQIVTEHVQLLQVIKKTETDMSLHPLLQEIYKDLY
Experiment: qHTS assay to identify small molecule agonists of the peroxisome proliferator-activated receptor gamma (PPARg) signaling pathway (AID 743094)
Conditions: HEK293H PPARg-UAS-bla, beta-lactamase FRET ratio, 17 h; series mostly up to 57 µM
Results filed as inconclusive are left out. Calls of active or inactive are those of the source. Calls come from the whole dose curve; as a rule, active = well fitted activation curve with a large enough effect in the signal ratio in the repeat runs (not every such curve was filed as active); inconclusive = weak or mixed curves, or effect the other way; inactive = no such curve, though single readings can be large or run the other way; the % refers to the signal ratio.
Measure: activation

Example entries and their recorded answers appear below.
[[record]]
compound = "NC(=O)NNC(N)=O"
measure = "activation"
recorded_value = "inactive"

[[record]]
compound = "CNCc1ccccc1"
measure = "activation"
recorded_value = "inactive"

[[record]]
compound = "CCN(Cc1cccc(S(=O)(=O)O)c1)c1ccccc1"
measure = "activation"
recorded_value = "inactive"

[[record]]
compound = "CCOC(=O)CC(CC(=O)OCC)(OC(C)=O)C(=O)OCC"
measure = "activation"
recorded_value = "inactive"

[[record]]
compound = "Cc1c(C(C)C)c(=O)n(-c2ccccc2)n1C"
measure = "activation"
recorded_value = "inactive"


Read off the recorded activation for NS(=O)(=O)c1cc2c(cc1Cl)NC(C(Cl)Cl)NS2(=O)=O (centres undefined)
inactive

Read off the recorded activation for `O=C1CC[C@H](C(=O)N2CCCCC2)N1`
inactive

Read off the recorded activation for `CCN(CCO)c1cccc(C)c1`
inactive

Read off the recorded activation for `CC(C)(C)c1ccc(C=O)cc1`
inactive

Read off the recorded activation for `O=S(=O)(O)SSS(=O)(=O)O`
inactive

----------
Experiment: qHTS assay to identify small molecule antagonists of the thyroid receptor (TR) signaling pathway - cell viability counter screen (AID 743064); also: nearly all actives have a fitted effect of over 50% in size
Settings: GH3.TRE-Luc viability, CellTiter-Fluor, 24 h; series mostly up to 70.3 µM
Inconclusive results are not listed. Active and inactive are the calls of the source. The call rests on the fitted dose curve; in most records, active means well fitted cell-killing curve with a large enough effect in the repeat runs; inconclusive means weak or mixed curves, or effect the other way; inactive means no such curve, though single readings can be large or run the other way.
Measure: outcome

Example entries and their recorded answers appear below.
[[record]]
compound = "CNC(=O)NC"
recorded_value = "inactive"

[[record]]
compound = "CCOC(=O)C(C)(C)C"
recorded_value = "inactive"

[[record]]
compound = "CCC(=O)c1ccc(O)cc1"
recorded_value = "inactive"

[[record]]
compound = "CCC(C)N (stereo unspecified)"
recorded_value = "inactive"

[[record]]
compound = "CO[Si](CCCCl)(OC)OC"
recorded_value = "inactive"

[[record]]
compound = "CCN(CCC#N)c1ccccc1"
recorded_value = "inactive"

[[record]]
compound = "CC(C)C(=O)c1ccccc1"
recorded_value = "inactive"

[[record]]
compound = "CCN(CCO)c1cccc(C)c1"
recorded_value = "inactive"


Read off the recorded outcome for CC(C)CCCC(C)CC=O (stereo unspecified)
inactive

Read off the recorded outcome for `Cc1ccccc1N1CCN(CCc2nnc3n2CCCC3)CC1`
inactive

Read off the recorded outcome for CC(CC(=O)O)CC(C)(C)C (stereo unspecified)
inactive

Read off the recorded outcome for `NC(=O)C1(N2CCCCC2)CCN(CCCC(=O)c2ccc(F)cc2)CC1`
inactive

Read off the recorded outcome for `CC(=O)OCCCc1ccccc1`
inactive

Read off the recorded outcome for `CO[Si](CCCS)(OC)OC`
inactive

Read off the recorded outcome for `CCC(CO)CO`
inactive

Read off the recorded outcome for `CCCCCCCCCCCCCC(=O)OC`
inactive
